Molecular target: IL-3-activated wild-type JAK2 (Homo sapiens, UniProt O60674)
Experiment: AlphaScreen SureFire pSTAT5 assay, IL-3-stimulated Ba/F3 wild-type JAK2
Recorded endpoint: IC50 (nM)
Provide only the numeric value, understood in nM.

Item Cc1cc(Nc2nc(N[C@@H](C)c3ncc(F)cn3)ncc2Cl)n[nH]1 [AZD1480, reference compound] : provide IC50
181

###

Target: JAK2 (Homo sapiens)
Sequence (O60674 whole entry): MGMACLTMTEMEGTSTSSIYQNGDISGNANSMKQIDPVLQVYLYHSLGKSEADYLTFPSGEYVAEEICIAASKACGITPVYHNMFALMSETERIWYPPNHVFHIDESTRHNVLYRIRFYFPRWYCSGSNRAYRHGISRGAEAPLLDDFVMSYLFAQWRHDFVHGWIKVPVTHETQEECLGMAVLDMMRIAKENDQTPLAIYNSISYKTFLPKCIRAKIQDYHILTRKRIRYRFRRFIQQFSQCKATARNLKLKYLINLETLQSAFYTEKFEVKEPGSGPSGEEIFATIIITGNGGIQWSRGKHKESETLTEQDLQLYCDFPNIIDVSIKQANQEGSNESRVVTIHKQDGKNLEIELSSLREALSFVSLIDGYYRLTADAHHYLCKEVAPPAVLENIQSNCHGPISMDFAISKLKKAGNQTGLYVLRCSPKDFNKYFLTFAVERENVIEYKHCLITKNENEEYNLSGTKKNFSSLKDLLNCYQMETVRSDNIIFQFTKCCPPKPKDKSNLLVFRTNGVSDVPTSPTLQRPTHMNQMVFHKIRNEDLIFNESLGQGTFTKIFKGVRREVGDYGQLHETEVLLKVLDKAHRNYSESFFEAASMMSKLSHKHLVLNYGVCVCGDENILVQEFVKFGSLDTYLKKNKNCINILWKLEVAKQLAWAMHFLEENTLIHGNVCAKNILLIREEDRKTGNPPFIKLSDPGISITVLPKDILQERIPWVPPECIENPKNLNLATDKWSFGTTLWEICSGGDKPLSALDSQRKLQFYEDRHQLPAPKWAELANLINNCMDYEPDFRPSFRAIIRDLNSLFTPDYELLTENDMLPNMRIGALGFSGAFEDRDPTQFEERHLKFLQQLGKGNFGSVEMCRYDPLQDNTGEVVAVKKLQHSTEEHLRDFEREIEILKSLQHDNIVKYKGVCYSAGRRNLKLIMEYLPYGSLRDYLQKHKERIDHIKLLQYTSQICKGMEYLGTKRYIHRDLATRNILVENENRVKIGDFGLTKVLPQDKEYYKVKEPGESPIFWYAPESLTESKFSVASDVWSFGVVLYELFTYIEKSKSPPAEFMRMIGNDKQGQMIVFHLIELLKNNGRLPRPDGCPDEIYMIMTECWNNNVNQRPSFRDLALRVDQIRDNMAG
Assay: JAK LanthaScreen Kinase Assay
Conditions: Biochemical measurement of JAK inhibition, JAK2 IC50±s.d., Table 1
Recorded endpoint: pIC50
In textbook form, pIC50 equals minus log to base ten of the concentration in mol/L.

Item Cc1cc(Nc2ccc3ncn([C@@H]4CCc5ccc(F)cc54)c3n2)[nH]n1.Cl.Cl : provide pIC50
8.70
